Exercise: state measured pKi for each of the binders provided.
Target: hMC1-R (human) (UniProt Q01726)
Sequence (Q01726 whole entry): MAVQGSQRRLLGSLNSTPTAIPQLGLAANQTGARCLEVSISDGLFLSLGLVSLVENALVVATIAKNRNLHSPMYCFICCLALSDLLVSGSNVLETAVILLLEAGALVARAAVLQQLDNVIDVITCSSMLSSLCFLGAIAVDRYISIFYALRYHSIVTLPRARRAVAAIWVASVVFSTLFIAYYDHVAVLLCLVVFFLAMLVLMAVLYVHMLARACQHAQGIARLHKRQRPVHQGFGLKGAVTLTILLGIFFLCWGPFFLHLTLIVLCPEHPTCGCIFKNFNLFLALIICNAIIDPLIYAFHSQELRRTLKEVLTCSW
Experiment: competition with [125I]-NDP-α-MSH, CHO-K1 membranes
Bridge positions count the residues as written; N and C are the ends. Square brackets hold non-standard residues; d marks the D form. Ends that are not written are not given here. Bip = N[C@@H](Cc1ccc(-c2ccccc2)cc1)C(=O)O; 1Nal = N[C@@H](Cc1cccc2ccccc12)C(=O)O; 2Nal = N[C@@H](Cc1ccc2ccccc2c1)C(=O)O; d2Nal = N[C@H](Cc1ccc2ccccc2c1)C(=O)O; hArg = N=C(N)NCCCC[C@H](N)C(=O)O; Pen = CC(C)(S)[C@H](N)C(=O)O; Nle = CCCC[C@H](N)C(=O)O; Ahx = NCCCCCC(=O)O; GABA = NCCCC(=O)O; βAla = NCCC(=O)O
Quick note: pKi values are minus log10 of concentrations in mol/L.

Measured pKi of Ac-[Nle]C[dA]H[d2Nal]R[1Nal]C-NH2 (disulfide 2-8; SMILES CCCC[C@H](NC(C)=O)C(=O)N[C@H]1CSSC[C@@H](C(N)=O)NC(=O)[C@H](Cc2cccc3ccccc23)NC(=O)[C@H](CCCNC(=N)N)NC(=O)[C@@H](Cc2ccc3ccccc3c2)NC(=O)[C@H](Cc2c[nH]cn2)NC(=O)[C@@H](C)NC1=O) [Ac-Nle-c(Cys-D-Ala-His-D-2-Nal-Arg-1-Nal-Cys)-NH2] : 6.94

Note to self: pKi recorded for [dF]CH[d(Et)Tyr]RW[βAla][dC]T-NH2 (disulfide 2-8) [D-Phe-c(Cys-His-D-(Et)Tyr-Arg-Trp-β-Ala-D-Cys)-Thr-NH2] was 10.30

Lab note: measured pKi of [dF]CH[dF][hArg][Bip][βAla][dC]T-NH2 (disulfide 2-8; N-terminus assumed; SMILES C[C@@H](O)[C@H](NC(=O)[C@H]1CSSC[C@H](NC(=O)[C@H](N)Cc2ccccc2)C(=O)N[C@@H](Cc2c[nH]cn2)C(=O)N[C@H](Cc2ccccc2)C(=O)N[C@@H](CCCCNC(=N)N)C(=O)N[C@@H](Cc2ccc(-c3ccccc3)cc2)C(=O)NCCC(=O)N1)C(N)=O) [D-Phe-c(Cys-His-D-Phe-hArg-Bip-β-Ala-D-Cys)-Thr-NH2] was 8.77

Per the records, this binder ( [dF]CH[dF]R[Bip][βAla][dC]T-NH2 (disulfide 2-8; N-terminus assumed; SMILES C[C@@H](O)[C@H](NC(=O)[C@H]1CSSC[C@H](NC(=O)[C@H](N)Cc2ccccc2)C(=O)N[C@@H](Cc2c[nH]cn2)C(=O)N[C@H](Cc2ccccc2)C(=O)N[C@@H](CCCNC(=N)N)C(=O)N[C@@H](Cc2ccc(-c3ccccc3)cc2)C(=O)NCCC(=O)N1)C(N)=O) [D-Phe-c(Cys-His-D-Phe-Arg-Bip-β-Ala-D-Cys)-Thr-NH2] ) has pKi equal to 8.24

Ac-[Nle]CH[d2Nal]RW[Ahx]C-NH2 (disulfide 2-8) [Ac-Nle-c(Cys-His-D-2-Nal-Arg-Trp-Ahx-Cys)-NH2] yielded pKi of 9.48

# pKi of Ac-[Nle]C[dA]H[dF]RW[dA]C-NH2 (disulfide 2-9; SMILES CCCC[C@H](NC(C)=O)C(=O)N[C@H]1CSSC[C@@H](C(N)=O)NC(=O)[C@@H](C)NC(=O)[C@H](Cc2c[nH]c3ccccc23)NC(=O)[C@H](CCCNC(=N)N)NC(=O)[C@@H](Cc2ccccc2)NC(=O)[C@H](Cc2c[nH]cn2)NC(=O)[C@@H](C)NC1=O) [Ac-Nle-c(Cys-D-Ala-His-D-Phe-Arg-Trp-D-Ala-Cys)-NH2] = 8.41

Sure, the documented pKi for [dF]CH[dF]RW[GABA][dC]T-NH2 (disulfide 2-8; N-terminus assumed; SMILES C[C@@H](O)[C@H](NC(=O)[C@H]1CSSC[C@H](NC(=O)[C@H](N)Cc2ccccc2)C(=O)N[C@@H](Cc2c[nH]cn2)C(=O)N[C@H](Cc2ccccc2)C(=O)N[C@@H](CCCNC(=N)N)C(=O)N[C@@H](Cc2c[nH]c3ccccc23)C(=O)NCCCC(=O)N1)C(N)=O) [D-Phe-c(Cys-His-D-Phe-Arg-Trp-Gaba-D-Cys)-Thr-NH2] is 9.38

pKi in this record for [dF]CH[dF]RW[βAla][dC]T-NH2 (disulfide 2-8; N-terminus assumed; SMILES C[C@@H](O)[C@H](NC(=O)[C@H]1CSSC[C@H](NC(=O)[C@H](N)Cc2ccccc2)C(=O)N[C@@H](Cc2c[nH]cn2)C(=O)N[C@H](Cc2ccccc2)C(=O)N[C@@H](CCCNC(=N)N)C(=O)N[C@@H](Cc2c[nH]c3ccccc23)C(=O)NCCC(=O)N1)C(N)=O) [D-Phe-c(Cys-His-D-Phe-Arg-Trp-β-Ala-D-Cys)-Thr-NH2] : 9.68

Briefly, pKi measured for Ac-[Nle]CH[d2Nal]RW[GABA]C-NH2 (disulfide 2-8) [Ac-Nle-c(Cys-His-D-2-Nal-Arg-Trp-Gaba-Cys)-NH2] : 9.41

Data point: Ac-[Nle]C[dA]H[d2Nal]R[2Nal]C-NH2 (disulfide 2-8; SMILES CCCC[C@H](NC(C)=O)C(=O)N[C@H]1CSSC[C@@H](C(N)=O)NC(=O)[C@H](Cc2ccc3ccccc3c2)NC(=O)[C@H](CCCNC(=N)N)NC(=O)[C@@H](Cc2ccc3ccccc3c2)NC(=O)[C@H](Cc2c[nH]cn2)NC(=O)[C@@H](C)NC1=O) [Ac-Nle-c(Cys-D-Ala-His-D-2-Nal-Arg-2-Nal-Cys)-NH2] ; pKi = 7.49

// field: pKi; key: Ac-[Nle][Pen]H[dF]RW[GABA]C-NH2 (disulfide 2-8; SMILES CCCC[C@H](NC(C)=O)C(=O)N[C@@H]1C(=O)N[C@@H](Cc2c[nH]cn2)C(=O)N[C@H](Cc2ccccc2)C(=O)N[C@@H](CCCNC(=N)N)C(=O)N[C@@H](Cc2c[nH]c3ccccc23)C(=O)NCCCC(=O)N[C@H](C(N)=O)CSSC1(C)C) [Ac-Nle-c(Pen-His-D-Phe-Arg-Trp-Gaba-Cys)-NH2] ; value = 9.27

The value of pKi measured for the binder [dF]CH[d(Et)Tyr][hArg][Bip][βAla][dC]T-NH2 (disulfide 2-8) [D-Phe-c(Cys-His-D-(Et)Tyr-hArg-Bip-β-Ala-D-Cys)-Thr-NH2] turned out to be 9.89

Reported pKi for [dF]CH[dF][hArg]W[βAla][dC]T-NH2 (disulfide 2-8; N-terminus assumed; SMILES C[C@@H](O)[C@H](NC(=O)[C@H]1CSSC[C@H](NC(=O)[C@H](N)Cc2ccccc2)C(=O)N[C@@H](Cc2c[nH]cn2)C(=O)N[C@H](Cc2ccccc2)C(=O)N[C@@H](CCCCNC(=N)N)C(=O)N[C@@H](Cc2c[nH]c3ccccc23)C(=O)NCCC(=O)N1)C(N)=O) [D-Phe-c(Cys-His-D-Phe-hArg-Trp-β-Ala-D-Cys)-Thr-NH2] was 9.35
